B1: library; numbered along this chain (parent)
chain: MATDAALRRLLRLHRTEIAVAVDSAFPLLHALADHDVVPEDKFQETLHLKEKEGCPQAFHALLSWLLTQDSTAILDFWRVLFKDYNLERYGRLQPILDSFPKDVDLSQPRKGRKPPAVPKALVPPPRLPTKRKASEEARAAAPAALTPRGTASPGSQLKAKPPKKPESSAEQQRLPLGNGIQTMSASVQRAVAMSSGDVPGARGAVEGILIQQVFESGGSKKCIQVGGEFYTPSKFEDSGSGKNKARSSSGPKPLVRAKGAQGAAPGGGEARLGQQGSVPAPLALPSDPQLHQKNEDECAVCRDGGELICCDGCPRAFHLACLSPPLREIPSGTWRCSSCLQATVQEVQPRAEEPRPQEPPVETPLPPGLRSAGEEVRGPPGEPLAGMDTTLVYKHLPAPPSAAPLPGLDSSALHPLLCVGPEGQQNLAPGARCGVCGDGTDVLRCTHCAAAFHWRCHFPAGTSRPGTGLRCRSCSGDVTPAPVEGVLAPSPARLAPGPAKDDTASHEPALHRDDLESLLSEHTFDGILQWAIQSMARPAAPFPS

variants of: B1; experiment: AIRE transcriptional activation functional score (insulin promoter-GFP; nonsense median 0, synonymous median 1) (normalised score); higher = higher AIRE activity (more reporter activation); details: with insulin promoter-GFP reporter in HEK293
assay_endpoint: AIRE transcriptional activation functional score
Answers are plain numbers.

Here are 8 variants together with their reported answers.
H396L ... 1.69
A145S ... 1.4
V345A ... 0.719
D442C ... 0.845
T447Y ... 0.458
Q69N ... -0.248
A21I ... -0.0753
N86E ... -0.323

Look at each variant and report its AIRE transcriptional activation functional score.
1. A191Y
2. P116F
3. V393A
4. V188S
5. A489F
6. S476C
7. E207Q

Output line:
[-0.337, 1.18, 1.04, 0.447, 1.16, 0.608, 0.672]

Look at each variant and report its AIRE transcriptional activation functional score.
1. P116C
2. V118Y
3. G424D
4. E383D
5. P381N

Output line:
[1.36, 1.42, 1, 0.97, 1.07]

Look at each variant and report its AIRE transcriptional activation functional score.
1. L75A
2. R272C
3. N427F
4. P544C

Output line:
1. 0.288
2. 1.3
3. 1.42
4. 0.924

Look at each variant and report its AIRE transcriptional activation functional score.
1. T391G
2. G469N
3. C449H
4. A33W

Output line:
0.941
1
0.515
0.679

Look at each variant and report its AIRE transcriptional activation functional score.
1. P116K
2. E296Y
3. E171C

Output line:
1: 0.772; 2: 0.486; 3: 1.96

Look at each variant and report its AIRE transcriptional activation functional score.
1. H454M
2. P233S

Output line:
[-0.148, 1.01]

Look at each variant and report its AIRE transcriptional activation functional score.
1. R127H
2. S412D
3. M184N
4. P380H
5. V192Y
6. S187E
7. P331F

Output line:
[0.326, 0.652, 0.0346, 0.534, 1.19, 0.48, 0.62]

Look at each variant and report its AIRE transcriptional activation functional score.
1. T151M
2. T68C
3. A186F
4. A6H
5. D34R

Output line:
1: 0.378; 2: 0.77; 3: -0.0353; 4: 0.532; 5: -0.24

Field AIRE transcriptional activation functional score (entry `L418V` ) reads 1.04

Measured values drawn from the supplement of paper PMC12667976 for this set.
